Test description: CD69 Whole Blood Assay (CD69 Hu Blood FACS)
Format: cell-based, human
Test context: Lymphocyte; human whole blood, anti-IgM activated B lymphocytes, FACS; IC70; Table 2 (unit inferred); read-out: CD69 Hu Blood FACS (IC70)
# label = rule met if IC70 < 100 nM else rule not met

Example entries and their recorded answers appear below.
[
  {
    "Compound": "COCCN1CCn2nc(Nc3cc(-c4ccnc(N5CCn6c(cc7c6CC(C)(C)C7)C5=O)c4CO)nn(C)c3=O)cc2C1 [Example 305]",
    "Class label": "rule met"
  },
  {
    "Compound": "CCn1nc(Nc2cc(-c3ccnc(N4CCn5c(cc6c5CC(C)(C)C6)C4=O)c3CO)cn(C)c2=O)cc1C [Example 252]",
    "Class label": "rule not met"
  },
  {
    "Compound": "COCc1cc(Nc2cc(-c3ccnc(N4CCc5c(cc6n5CCCC6)C4=O)c3CO)cn(C)c2=O)nn1C [Example 336]",
    "Class label": "rule not met"
  },
  {
    "Compound": "Cn1cc(-c2ccnc(N3CCn4c(cc5c4CC(C)(C)C5)C3=O)c2CO)cc(Nc2ccc(C#N)cn2)c1=O [Example 276]",
    "Class label": "rule not met"
  },
  {
    "Compound": "COCCCN1CCn2nc(Nc3cc(-c4ccnc(N5CCn6c(cc7c6CC(C)(C)C7)C5=O)c4CO)cn(C)c3=O)cc2C1 [Example 309]",
    "Class label": "rule met"
  }
]

Shift focus to the following entry.
Quick check: IC70 of Cn1cc(-c2ccnc(N3CCn4c(cc5c4CC(C)(C)C5)C3=O)c2CO)cc(Nc2ccc(C(F)(F)F)cn2)c1=O [Example 279] under 100 nM?
rule not met

###

Test description: CD69 Whole Blood Assay (CD69 Hu Blood FACS)
Format: cell-based, human
Test context: Lymphocyte; human whole blood, anti-IgM activated B lymphocytes, FACS; IC70; Table 2 (unit inferred); read-out: CD69 Hu Blood FACS (IC70)
Entries and their IC70 values follow.
Provide the measurement as a number trailed by its unit.

[
  {
    "Compound": "CC1Cn2nc(Nc3cc(-c4ccnc(N5CCn6c(cc7c6CCCC7)C5=O)c4CO)cn(C)c3=O)cc2CN1C (stereo not shown) [Example 250]",
    "Recorded result": "171 nM"
  },
  {
    "Compound": "Cn1cc(-c2ccnc(N3CCn4c(cc5c4CC(C)(C)C5)C3=O)c2CO)cc(Nc2cc3n(n2)CCN(CCC#N)C3)c1=O [Example 338]",
    "Recorded result": "17.8 nM"
  },
  {
    "Compound": "COCCN1CCn2nc(Nc3cc(-c4ccnc(-n5ncc6c7c(sc6c5=O)CC(C)(C)C7)c4CO)cn(C)c3=O)cc2C1 [Example 304]",
    "Recorded result": "40 nM"
  },
  {
    "Compound": "Cn1cc(-c2ccnc(N3CCn4c(cc5c4CC(C)(C)C5)C3=O)c2CO)cc(Nc2nc3c(s2)COCC3)c1=O [Example 214]",
    "Recorded result": "124 nM"
  },
  {
    "Compound": "Cc1nn(C)c2cnc(Nc3cc(-c4ccnc(N5CCn6c(cc7c6CC(C)(C)C7)C5=O)c4CO)cn(C)c3=O)cc12 [Example 325]",
    "Recorded result": "1400 nM"
  }
]

So for Cn1cc(-c2ccnc(N3CCn4c(cc5c4CC(C)(C)C5)C3=O)c2CO)cc(Nc2cc(C3COC3)[nH]n2)c1=O [Example 266] , the logged IC70 turned out to be 29.3 nM

So for Cc1cc(Nc2cc(-c3ccnc(N4CCn5c(cc6c5CC(C)(C)C6)C4=O)c3CO)cn(C)c2=O)nn1C1COC1 [Example 312] , the logged IC70 turned out to be 5600 nM

Attribution: patent US10045983B2
